Target: EGFR del19/C797S (Homo sapiens, UniProt P00533, C797S/DEL746-750)
Sequence (P00533 with tags, fused parts or gaps DEL746-750/C797S): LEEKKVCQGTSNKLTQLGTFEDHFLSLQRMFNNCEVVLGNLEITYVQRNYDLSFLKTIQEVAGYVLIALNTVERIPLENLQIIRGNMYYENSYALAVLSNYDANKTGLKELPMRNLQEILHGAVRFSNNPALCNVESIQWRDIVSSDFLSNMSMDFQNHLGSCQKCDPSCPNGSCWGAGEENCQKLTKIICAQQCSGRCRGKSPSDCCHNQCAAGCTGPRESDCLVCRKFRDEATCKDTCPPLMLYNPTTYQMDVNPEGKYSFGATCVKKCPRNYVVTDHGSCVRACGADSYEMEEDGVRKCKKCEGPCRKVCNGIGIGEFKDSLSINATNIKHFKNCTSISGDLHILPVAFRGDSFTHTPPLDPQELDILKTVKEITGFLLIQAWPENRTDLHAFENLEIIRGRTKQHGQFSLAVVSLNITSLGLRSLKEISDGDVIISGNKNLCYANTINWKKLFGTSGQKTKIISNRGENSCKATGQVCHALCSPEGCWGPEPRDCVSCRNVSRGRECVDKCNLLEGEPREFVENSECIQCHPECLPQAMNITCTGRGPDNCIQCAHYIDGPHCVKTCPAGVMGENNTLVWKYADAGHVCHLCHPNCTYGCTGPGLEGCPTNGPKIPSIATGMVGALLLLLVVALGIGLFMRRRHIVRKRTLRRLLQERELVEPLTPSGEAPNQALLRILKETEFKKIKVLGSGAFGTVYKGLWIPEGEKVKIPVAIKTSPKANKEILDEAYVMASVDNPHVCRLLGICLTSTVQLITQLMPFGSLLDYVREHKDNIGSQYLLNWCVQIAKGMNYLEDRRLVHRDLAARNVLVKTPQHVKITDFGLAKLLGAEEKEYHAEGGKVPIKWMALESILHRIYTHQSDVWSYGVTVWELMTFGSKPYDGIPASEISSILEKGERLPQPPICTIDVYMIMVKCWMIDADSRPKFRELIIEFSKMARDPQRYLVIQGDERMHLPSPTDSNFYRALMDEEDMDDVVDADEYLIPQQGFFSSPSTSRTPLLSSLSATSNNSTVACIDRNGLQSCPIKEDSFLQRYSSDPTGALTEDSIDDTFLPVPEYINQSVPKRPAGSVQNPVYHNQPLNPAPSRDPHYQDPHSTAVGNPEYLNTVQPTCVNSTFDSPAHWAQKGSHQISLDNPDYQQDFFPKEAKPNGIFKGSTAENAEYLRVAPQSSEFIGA
Assay: Biochemical EGFR kinase assay (Lance Ultra TR-FRET), double mutant del19/C797S
Details: ATP at Km; read-out: IC50 del19/C797S, Km ATP
OBSERVABLE: IC50 (nM)

Reference set (5 entries):
O=S(=O)(C1CC1)n1cc(-c2nccc(Nc3cc(N[C@H]4CC[C@@H](NCC(F)F)CC4)c(-c4cccc(F)n4)cn3)n2)cn1: 2.5
CN1CC(Oc2ccc(-c3cnc(Nc4ccnc(-c5cnn(S(=O)(=O)C6CC6)c5)n4)cc3N[C@H]3CC[C@@](C)(O)CC3)nc2)C1: 0.1
CC(C)(F)c1ccc(-c2cnc(Nc3ccnc(-c4cnn(S(=O)(=O)C5CC5)c4)n3)cc2N[C@H]2CC[C@@H](C(C)(C)O)CC2)nc1: 9.1
COC(c1ccc(-c2cnc(Nc3ccnc(-c4cnn(S(=O)(=O)C5CC5)c4)n3)cc2NC2CCC(CO)CC2)nc1)C(F)(F)F (stereo not drawn): 10.3
O=S(=O)(C1CC1)n1cc(-c2nccc(Nc3cc(N[C@H]4CC[C@@H](CCO)CC4)c(-c4ccc(CC(F)(F)F)cn4)cn3)n2)cn1: 10.2

(a) COC(c1ccc(-c2cnc(Nc3ccnc(-c4cnn(S(=O)(=O)C5CC5)c4)n3)cc2NC2CCC(C)(O)CC2)nc1)C(F)(F)F (stereo not drawn)
(b) CC(C)(O)c1ccc(-c2cnc(Nc3ccnc(-c4cnn(S(=O)(=O)C5CC5)c4)n3)cc2NC2CCC(F)(F)CC2)nc1
(c) CN1CCC(Oc2cccc(-c3cnc(Nc4ccnc(-c5cnn(S(=O)(=O)C6CC6)c5)n4)cc3N[C@H]3CC[C@@](C)(O)CC3)n2)CC1
(d) CN1CCC(Oc2ccc(-c3cnc(Nc4ccnc(-c5cnn(S(=O)(=O)C6CC6)c5)n4)cc3NC3CCC(F)(F)CC3)nc2)CC1
(e) C[C@]1(O)CC[C@@H](Nc2cc(Nc3ccnc(-c4cnn(S(=O)(=O)C5CC5)c4)n3)ncc2-c2cc(NCCC(F)(F)F)ccn2)CC1
Returns the items ordered by IC50, from maximum to minimum. Write the labels, ordered according to the request.
b, a, e, d, c
(b: 20.4 nM, a: 10.7 nM, e: 0.9 nM, d: 0.5 nM, c: 0.3 nM)

Values were extracted from patent US12258328B2.
